Quantity: melting point

# Compound, melting point
data = [
    ("COc1ccc(C(=O)c2c(C(=O)O)n(Cc3cccc(C(F)(F)F)c3)c3ccccc23)cc1 [Example 242]", "215 to 216 °C"),
]

Prompt: Value lookup for melting point; key = COc1cccc(Cn2c(C(=O)O)c(-c3ccc(C(C)(C)C)cc3)c3c(OCC4CC4)cccc32)c1 [Example 296]
Completion: 162 °C

Prompt: Value lookup for melting point; key = CC(=O)Nc1cccc(-c2c(C(=O)O)n(Cc3cccc(OCC4CC4)c3)c3ccccc23)c1 [Example 298]
Completion: 122 to 123 °C

Prompt: Value lookup for melting point; key = COc1cccc(Cn2c(C(=O)O)c3c4cc(ccc42)OCCCCCCOc2cccc-3c2)c1 [Example 300]
Completion: 79 to 80 °C

Prompt: Value lookup for melting point; key = COc1ccc(-c2c(C(=O)O)n(Cc3cccc(OC)c3)c3c(NC(=O)C4CC4)cccc23)cc1 [Example 302]
Completion: 210 °C (dec.)

Prompt: Value lookup for melting point; key = COc1ccc(-c2c(C(=O)O)n(Cc3cccc(OC)c3)c3c(N(C)C(=O)C4CC4)cccc23)cc1 [Example 303]
Completion: 98 °C (dec.)

Prompt: Value lookup for melting point; key = CC(=O)c1ccc(-c2c(C(=O)O)n(Cc3cccc(C(F)(F)F)c3)c3ccccc23)s1 [Example 236]
Completion: 212 to 214 °C

Prompt: Value lookup for melting point; key = COc1cccc(Cn2c(C(=O)O)c(-c3ccc(C(C)(C)C)cc3)c3cc(COCC4CC4)ccc32)c1 [Example 266]
Completion: 79 to 80 °C

Prompt: Value lookup for melting point; key = Cc1cccc(-c2c(C(=O)O)n(Cc3cccc(OCC4CC4)c3)c3ccccc23)c1 [Example 299]
Completion: 58 to 60 °C

* * *

Below is a list of entries, each paired with its recorded IC50 value.
Biological target: PPARγ ligand binding domain (LBD) (amino acids 195-475) (Homo sapiens, UniProt P37231)
Construct: polyHis; made in house; host or cells: Escherichia coli
Sequence (P37231 223-503, species assumed): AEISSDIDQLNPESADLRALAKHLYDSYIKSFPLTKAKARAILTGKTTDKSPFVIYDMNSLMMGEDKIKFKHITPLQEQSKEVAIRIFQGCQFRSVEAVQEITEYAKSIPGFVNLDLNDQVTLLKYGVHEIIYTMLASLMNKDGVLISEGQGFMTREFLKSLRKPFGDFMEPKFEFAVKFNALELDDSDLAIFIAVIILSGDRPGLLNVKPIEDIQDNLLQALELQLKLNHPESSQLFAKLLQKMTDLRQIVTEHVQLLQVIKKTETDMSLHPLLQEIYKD
Assay: PPAR-γ binding assay (spin plate / gel filtration binding assay, displacement of [3H]BRL 49653)
Conditions: read-out: IC50 range in the PPAR-γ Binding Assay

Look over these answered cases.
# Compound, Quantity, Result
rows = [
    ("O=C(O)c1[nH]c2c(C(=O)c3ccccc3)cccc2c1-c1ccccc1 [Example 251]", "IC50", "10 to 10000 nM"),
    ("COc1ccc(-c2c(C(=O)O)n(S(=O)(=O)c3cccc(C(F)(F)F)c3)c3ccccc23)cc1 [Example 337]", "IC50", "10 to 10000 nM"),
    ("COc1cccc(Cn2c(C(=O)O)c(-c3ccc(OCC4CC4)cc3)c3cc(OCC4CC4)ccc32)c1 [Example 334]", "IC50", "0.1 to 9.99 nM"),
]

Prompt: Value lookup for IC50; key = COc1ccc(-c2c(C(=O)NS(=O)(=O)c3ccc(OC)cc3)n(Cc3cccc(C(F)(F)F)c3)c3ccccc23)cc1 [Example 357]
Completion: 0.1 to 9.99 nM

Prompt: Value lookup for IC50; key = COc1cccc(Cn2c(C(=O)O)c(-c3ccc(C(C)(C)C)cc3)c3cc(NC(=O)C4CCCC4)ccc32)c1 [Example 269]
Completion: 10 to 10000 nM

Prompt: Value lookup for IC50; key = O=C(O)c1c(-c2cccc(OCC3CC3)c2)c2ccccc2n1Cc1ccc(F)cc1 [Example 339]
Completion: 0.1 to 9.99 nM

Prompt: Value lookup for IC50; key = COCCOc1ccc2c(c1)c(-c1ccc(OCC3CC3)cc1)c(C(=O)O)n2Cc1cccc(OC)c1 [Example 312]
Completion: 0.1 to 9.99 nM

Prompt: Value lookup for IC50; key = COc1cccc(Cn2c(C(=O)O)c(-c3ccc(C(C)(C)C)cc3)c3c(OCC4CC4)cccc32)c1 [Example 296]
Completion: 10 to 10000 nM

Prompt: Value lookup for IC50; key = COc1cccc(Cn2c(C(=O)O)c(-c3ccc(OCC4CC4)cc3)c3cc(OCC=O)ccc32)c1 [Example 313]
Completion: 0.1 to 9.99 nM

Prompt: Value lookup for IC50; key = COc1ccc(Cc2c(C(=O)O)n(CC3CC3)c3ccccc23)cc1 [Example 230]
Completion: 10 to 10000 nM

Prompt: Value lookup for IC50; key = CN1CCN(C(=O)c2c(C(=O)O)n(Cc3cccc(C(F)(F)F)c3)c3ccccc23)CC1 [Example 246]
Completion: 10 to 10000 nM

Prompt: Value lookup for IC50; key = COc1ccc(-c2c(C(=O)O)n(Cc3cccc(OC)c3)c3c(NC(=O)C4CC4)cccc23)cc1 [Example 302]
Completion: 10 to 10000 nM

Prompt: Value lookup for IC50; key = COc1cccc(Cn2c(C(=O)O)c(-c3ncc(C(C)=O)s3)c3ccccc32)c1 [Example 343]
Completion: 0.1 to 9.99 nM

Prompt: Value lookup for IC50; key = CC(=O)Nc1cccc(-c2c(C(=O)O)n(Cc3cccc(OCC4CC4)c3)c3ccccc23)c1 [Example 298]
Completion: 10 to 10000 nM

Prompt: Value lookup for IC50; key = CC1(C)COC(c2c(C(=O)O)n(Cc3cccc(C(F)(F)F)c3)c3ccccc23)=N1 [Example 238]
Completion: 10 to 10000 nM

Prompt: Value lookup for IC50; key = COc1cccc(Cn2c(C(=O)O)c(-c3ccc(OCC4CC4)cc3)c3cc(OCc4cccc(C(F)(F)F)c4)ccc32)c1 [Example 321]
Completion: 0.1 to 9.99 nM

Prompt: Value lookup for IC50; key = O=C(O)c1c(-c2ccc(S(=O)(=O)C3CC3)cc2)c2ccccc2n1Cc1cccc(C(F)(F)F)c1 [Example 353]
Completion: 0.1 to 9.99 nM

Prompt: Value lookup for IC50; key = Cc1sc(-c2ccccc2)nc1CCOc1ccc2c(c1)cc(C(=O)O)n2CC1CCCO1 (stereo not shown) [Example 276]
Completion: 10 to 10000 nM

* * *

Quantity: melting point (°C)
# output: bare number, implied unit °C

# Smiles record, melting point / °C
data = [
    ("COc1cccc(Cn2c(C(=O)O)c(-c3ccc(C(C)(C)C)cc3)c3cccc(NC(=O)C4CC4)c32)c1", 151),
    ("CC(C)(C)c1ccc(-c2c(C(=O)O)n(Cc3cccc(OC4CCCC4)c3)c3ccccc23)cc1", 159),
]

Consider now this further molecule.
Prompt: Value lookup for melting point; key = "COc1cccc(Cn2c(C(=O)O)c(-c3ccc(C(=O)NC4CCCCC4)cc3)c3ccccc32)c1"
Completion: 245

* * *

Target: PPARγ ligand binding domain (LBD) (amino acids 195-475) (Homo sapiens)
Construct: polyHis; made in house; host or cells: Escherichia coli
Assay: PPAR-γ binding assay (spin plate / gel filtration binding assay, displacement of [3H]BRL 49653)
Conditions: read-out: IC50 range in the PPAR-γ Binding Assay
pIC50: −log10 of the molar value.
Quantity: pIC50

# Smiles record, System name, pIC50
rows = [
    ("COc1ccc(-c2c(C(=O)O)n(Cc3cccc(OCC4CC4)c3)c3ccccc23)cc1", "PPARγ ligand binding domain (LBD) (amino acids 195-475) (Homo sapiens)", "8.00 to 10.00"),
]

Prompt: Value lookup for pIC50; key = "CCOc1ccc(-c2c(C(=O)O)n(Cc3ccc(F)cc3)c3ccc(COCC4CC4)cc23)cc1"
Completion: 8.00 to 10.00

Prompt: Value lookup for pIC50; key = "O=C(O)c1c(CC2CC2)c2ccccc2n1Cc1cccc(C(F)(F)F)c1"
Completion: 8.00 to 10.00

Prompt: Value lookup for pIC50; key = "O=C(O)c1c(-c2nc3cc(Cl)ccc3o2)c2ccccc2n1Cc1cccc(C(F)(F)F)c1"
Completion: 5.00 to 8.00

Prompt: Value lookup for pIC50; key = "O=C(O)c1c(-c2ccc(OCC3CC3)cc2)c2ccccc2n1Cc1cccc(OC(F)(F)F)c1"
Completion: 8.00 to 10.00

Prompt: Value lookup for pIC50; key = "CC(C)(C)c1ccc(-c2c(C(=O)O)n(Cc3cccc(OC4CCCC4)c3)c3ccccc23)cc1"
Completion: 8.00 to 10.00

Prompt: Value lookup for pIC50; key = "COc1cccc(Cn2c(C(=O)O)c3c4cc(ccc42)OCCCCCCOc2cccc-3c2)c1"
Completion: 5.00 to 8.00

Prompt: Value lookup for pIC50; key = "COc1cccc(Cn2c(C(=O)O)c(-c3ccc(C(C)(C)C)cc3)c3cc(NC(=O)NCC4CC4)ccc32)c1"
Completion: 5.00 to 8.00

Prompt: Value lookup for pIC50; key = "COc1cccc(Cn2c(C(=O)O)c(-c3ccc(OCC4CC4)cc3)c3cc(OCc4ccc(C(C)(C)C)cc4)ccc32)c1"
Completion: 5.00 to 8.00

Prompt: Value lookup for pIC50; key = "COc1ccc(-c2c(C(=O)NS(=O)(=O)c3ccc(Cl)cc3)n(Cc3cccc(C(F)(F)F)c3)c3ccccc23)cc1"
Completion: 8.00 to 10.00
